Where do the numbers come from? From ChEMBL document CHEMBL4689842.

Tested on: U2OS
Assay: Multiplex assay against U2OS
Assay type: toxicity, cell-based
Conditions: human, 48 h, 1 µM, compound concentration 1 uM, replicate 1
parameter measured: Population Mitotic Cells (%)
One number for each entry, in %.

Below, 5 molecules whose answers are already recorded.
INSERT INTO results (molecule, experimental_system, numeric_value) VALUES
  ('CNc1nc(NCc2ccc(NS(C)(=O)=O)cc2Cl)cc(-c2ccccn2)n1', 'U2OS', 58),
  ('CN1CCCC(n2nc(Cc3ccc(Cl)cc3)c3ccccc3c2=O)CC1.Cl (stereo unspecified) [AZELASTINE HYDROCHLORIDE]', 'U2OS', 45),
  ('C=CC(=O)Nc1cccc(C(=O)Nc2ccc(Nc3cc(-c4[nH]c(SC)nc4C)ccn3)cc2)c1', 'U2OS', 62),
  ('CC[C@H](C)C(=O)O[C@H]1C[C@@H](C)C=C2C=C[C@H](C)[C@H](CC[C@@H]3C[C@@H](O)CC(=O)O3)[C@H]21', 'U2OS', 58),
  ('CN1CCN(c2ccc(OC(F)(F)F)c(Nc3ncc4c(n3)-c3c(c(C(N)=O)nn3CCO)CC4)c2)CC1', 'U2OS', 37);

Below are 8 molecules. Give each one its Population Mitotic Cells (%).
1. c1cn2cc(-c3ccc4cn[nH]c4c3)nc(Nc3ccc(N4CCOCC4)cc3)c2n1
2. CN(C)C(=O)/C(C#N)=C/c1ccc(-c2nc3cnc4[nH]ccc4c3n2C2CCCCC2)o1
3. CN(C)C(=O)N[C@H]1CC[C@H](CCN2CCN(c3cccc(Cl)c3Cl)CC2)CC1.Cl [CARIPRAZINE HYDROCHLORIDE]
4. COc1cccc([C@@H](C)NCCCc2ccccc2Cl)c1.Cl [TECALCET HYDROCHLORIDE]
5. CN1CCN(CCOc2cc(OC3CCOCC3)c3c(Nc4c(Cl)ccc5c4OCO5)ncnc3c2)CC1
6. Cc1nc(-c2ccc(-c3ccc(C(=O)N4CCc5cc6c(cc54)C4(CCN(C)CC4)CO6)cc3)c(C)c2)no1
7. COc1cc(-n2cnc3cc(-c4ccc(Cl)cc4)sc3c2=O)ccc1OCCN1CCCC1
8. CN(C)CC#Cc1ccc(OCCCc2sc(N3CCc4cccc(C(=O)Nc5nc6ccccc6s5)c4C3)nc2C(=O)O)c(F)c1

1: 53; 2: 44; 3: 72; 4: 16; 5: 44; 6: 45; 7: 40; 8: 32

// for each molecule below, give its Population Mitotic Cells (%)
1. CC(C)NCC(O)COc1ccc(CCOCC2CC2)cc1.Cl (stereo unspecified) [BETAXOLOL HYDROCHLORIDE]
2. Cn1cc(-c2[nH]c3cc(NC(=O)[C@H](N)C4CCCCC4)cc4c3c2C=NNC4=O)cn1
3. CC(C)(O)CNc1ncc(-c2ccnc(Nc3ccnc(Cl)c3)n2)c(CC2CC2)n1

74
54
54

Give Population Mitotic Cells (%) for each listed item.
1. Cc1csc2c(N[C@@H](C)CN3CCN(S(=O)(=O)c4ccc(Cl)c(Cl)c4)CC3)ncnc12
2. O=C1NCN(c2ccccc2)C12CCN(CCCOc1ccc(F)cc1)CC2 [SPIRAMIDE]
3. Cc1cc(C)cc(-c2cnc3cc(Cl)c(-c4cccc(O)c4)cc3c2OCCCN)c1
4. Cl.N#Cc1ccc2[nH]cc(CCCCN3CCN(c4ccc5oc(C(N)=O)cc5c4)CC3)c2c1 [VILAZODONE HYDROCHLORIDE]
5. OC1(c2ccc(Cl)cc2)CCN(Cc2c[nH]c3ccccc23)CC1
6. Cc1[nH]c(/C=C2\C(=O)Nc3ccc(S(=O)(=O)N(C)c4cccc(Cl)c4)cc32)c(C)c1C(=O)N1CCN(C)CC1
7. COc1ncc(-c2ccc3nccc(-c4ccnnc4)c3c2)cc1NS(=O)(=O)c1ccc(F)cc1F

1. 22
2. 75
3. 51
4. 61
5. 76
6. 19
7. 40

Kindly give each listed record's Population Mitotic Cells (%).
1. C[C@@H](NCCCc1cccc(C(F)(F)F)c1)c1cccc2ccccc12.Cl [CINACALCET HYDROCHLORIDE]
2. CN1CCC[C@@H]1CCO[C@](C)(c1ccccc1)c1ccc(Cl)cc1.O=C(O)/C=C/C(=O)O [CLEMASTINE FUMARATE]

[61, 61]

Request the reported Population Mitotic Cells (%) associated with `Cc1c(-c2ccc(O)cc2)n(Cc2ccc(OCCN3CCCCCC3)cc2)c2ccc(O)cc12`
46
